Reference source for all entries: patent US9051250B2

Test: Solubility of Form A and Form D
Assay type: physicochemical
Details: 50:50 Cremophor/ethanol, organic solvent or mixture, thermodynamic from solid, 50:50 Cremophor/EtOH, shake time 24 hour, Vial1; read-out: Solubility in 50:50 Cre/EtOH, Vial1
value_type: solubility at 24 h (mg/mL)
Give your result in mg/mL as a bare value.

Any idea what solubility at 24 h was measured for CN(NC(=O)CC(=O)NN(C)C(=S)c1ccccc1)C(=S)c1ccccc1 [Form A] ?
24.4

* * *

Experiment: Solubility of Form A and Form D
Assay type: physicochemical
Details: ethanol, organic solvent or mixture, thermodynamic from solid, EtOH, shake time 24 hour, average of two vials; read-out: Solubility in EtOH, Average
value_type: solubility at 24 h (µg/mL)
I only need the number, in µg/mL, no unit after it.

Param item = CN(NC(=O)CC(=O)NN(C)C(=S)c1ccccc1)C(=S)c1ccccc1 [Form A] ; retrieve measured solubility at 24 h.
6400

* * *

Assay: Solubility of Form A and Form D
Assay type: physicochemical
Conditions: 50:50 Cremophor/ethanol, organic solvent or mixture, thermodynamic from solid, 50:50 Cremophor/EtOH, shake time 24 hour, Vial2; read-out: Solubility in 50:50 Cre/EtOH, Vial2
value_type: solubility at 24 h (mg/mL)
Write the answer as a number in mg/mL, unit excluded.

Find the recorded solubility at 24 h belonging to CN(NC(=O)CC(=O)NN(C)C(=S)c1ccccc1)C(=S)c1ccccc1 [Form A] and report it.
24.3

* * *

Experiment: Solubility of Form A and Form D
Assay type: physicochemical
Settings: ethyl acetate, organic solvent or mixture, thermodynamic from solid, EtOAc, shake time 24 hour, average of two vials; read-out: Solubility in EtOAc, Average
value_type: solubility at 24 h
I'd appreciate it if you wrote the number followed by its unit.

Fill blank: measured solubility at 24 h of the compound CN(NC(=O)CC(=O)NN(C)C(=S)c1ccccc1)C(=S)c1ccccc1 [Form A] is ____.
4700 µg/mL

* * *

Test: Solubility of Form A and Form D
Format: physicochemical
Conditions: 50:50 Cremophor/ethanol, organic solvent or mixture, thermodynamic from solid, 50:50 Cremophor/EtOH, shake time 24 hour, average of two vials; read-out: Solubility in 50:50 Cre/EtOH, Average
value_type: solubility at 24 h (mg/mL)
Supply the numeric figure in mg/mL, leaving out any unit text.

Tell me the measured solubility at 24 h of CN(NC(=O)CC(=O)NN(C)C(=S)c1ccccc1)C(=S)c1ccccc1 [Form A] , please.
24.3

* * *

Experiment: Solubility of Form A and Form D
Format: physicochemical
Conditions: ethyl acetate, organic solvent or mixture, thermodynamic from solid, EtOAc, shake time 24 hour, Vial1; read-out: Solubility in EtOAc, Vial1
value_type: solubility at 24 h

Could you share which solubility at 24 h value was measured for CN(NC(=O)CC(=O)NN(C)C(=S)c1ccccc1)C(=S)c1ccccc1 [Form A] ?
4690 µg/mL

* * *

Test: Solubility of Form A and Form D
Format: physicochemical
Settings: ethanol, organic solvent or mixture, thermodynamic from solid, EtOH, shake time 24 hour, Vial2; read-out: Solubility in EtOH, Vial2
value_type: solubility at 24 h (µg/mL)
Just the number in µg/mL, nothing appended.

Return reported solubility at 24 h; argument: CN(NC(=O)CC(=O)NN(C)C(=S)c1ccccc1)C(=S)c1ccccc1 [Form A]
6450
